These entries and their values trace back to patent US10336746B1.

assay-procedure: Bi-directional Caco-2 permeability
Assay type: in vitro ADME
conditions-used: human; Caco-2, basolateral to apical, 37 C, up to 90 minutes; read-out: BA Papp (cm/sec × 10^6)
quantity: Papp B→A at 90 min (×10⁻⁶ cm/s)
Report only the number, with the unit ×10⁻⁶ cm/s understood.

// Papp B→A at 90 min value for CC(C)OC(=O)Nc1ccc(-c2cnc([C@H]3CC[C@H](NC(=O)OC(C)C)CC3)s2)c(S(=O)(=O)NC(C)(C)C)c1 [Ex. 67A] : 6.9

// Papp B→A at 90 min value for CC(C)OC(=O)Nc1ccc(-c2cnc(N3CCN(C(=O)OC(C)C)CC3)s2)c(S(=O)(=O)NC(C)(C)C)c1 [Ex. 5] : 2.2

// Papp B→A at 90 min value for CC(C)OC(=O)N[C@H]1CC[C@H](c2nc(F)c(-c3ccc(NC(=O)NCc4ccccc4)cc3S(=O)(=O)NC(C)(C)C)s2)CC1 [Ex. 57] : 3.5

// Papp B→A at 90 min value for CC(C)NC(=O)O[C@H]1CC[C@H](c2ncc(-c3ccc(NC(=O)NCc4ccccc4)cc3S(=O)(=O)NC(C)(C)C)s2)CC1 [Ex. 21] : 10.7

// Papp B→A at 90 min value for CC(C)OC(=O)N[C@@H]1CC[C@@H](c2ncc(-c3ccc(NC(=O)NCc4ccccc4)cc3S(=O)(=O)NC(C)(C)C)s2)NC1 [Ex. 64] : 27.4

// Papp B→A at 90 min value for C[C@H](NC(=O)Nc1ccc(-c2cnc(C3CCC(NC(=O)OC4COC4)CC3)s2)c(S(=O)(=O)NC(C)(C)C)c1)c1ccccc1F (stereo partly shown) [Ex. 55] : 7

// Papp B→A at 90 min value for CC(C)OC(=O)N[C@H]1CC[C@H](c2ncc(-c3ccc(NC(=O)NCc4ccccc4)cc3S(=O)(=O)NC(C)(C)C)s2)OC1 [Ex. 59B] : 9.7

// Papp B→A at 90 min value for CC(C)(C)NS(=O)(=O)c1cc(NC(=O)NCc2ccccc2)ccc1-c1cnc([C@H]2CC[C@H](NC(=O)OC3COC3)CC2)s1 [Ex. 47] : 12.4

// Papp B→A at 90 min value for CC(C)OC(=O)NC1CCC(c2ncc(-c3ccc(NC(=O)OC4COC4)cc3S(=O)(=O)NC(C)(C)C)s2)CC1 (stereo not shown) [Ex. 38] : 22.9

// Papp B→A at 90 min value for CC(C)(C)NS(=O)(=O)c1cc(NC(=O)NCc2ccccc2)ccc1-c1cnc([C@H]2CC[C@H](NC(=O)OC(C)(C)C)CC2)s1 [Ex. 10] : 1.5

// Papp B→A at 90 min value for CC(C)OC(=O)N[C@H]1CC[C@H](c2ncc(-c3ccc(NC(=O)NCc4ccccc4F)cc3S(=O)(=O)NC(C)(C)C)s2)CC1 [Ex. 28] : 3.3

// Papp B→A at 90 min value for CC(C)OC(=O)N[C@H]1CC[C@H](c2ncc(-c3ccc(NC(=O)NCc4ccccn4)cc3S(=O)(=O)NC(C)(C)C)s2)CC1 [Ex. 29] : 24.1

// Papp B→A at 90 min value for CC(C)(C)NS(=O)(=O)c1cc(NC(=O)NCc2ccccc2F)ccc1-c1cnc(C2CCC(NC(=O)OC3COC3)CC2)s1 (stereo not shown) [Ex. 53] : 9.7
